Biological target: T1, mouse common cytokine receptor γ-chain (IL-2Rγ) (mouse, UniProt P34902 23-263, limits assumed)
T1 construct: Recombinant mouse IL-2Rγ protein; also called mo IL-2R; mouse IL-2R gamma
T1 sequence (looked up): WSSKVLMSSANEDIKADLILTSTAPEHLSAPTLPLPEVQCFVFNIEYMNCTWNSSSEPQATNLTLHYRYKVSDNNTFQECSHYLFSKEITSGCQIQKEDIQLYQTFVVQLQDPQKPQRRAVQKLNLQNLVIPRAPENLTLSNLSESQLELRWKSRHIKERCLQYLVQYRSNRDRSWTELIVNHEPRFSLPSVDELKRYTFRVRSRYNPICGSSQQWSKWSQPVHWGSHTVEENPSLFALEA
Assay: P.E. binding ELISA
Tick 1 (yes) if PE binding ELISA OD is 0.05 OD450 nm or greater. Tick 0 (no) if PE binding ELISA OD is less than 0.05 OD450 nm.

FJ1427_P035MP07D03 (VHH, tested as periplasmic extract; also called Clone nr) VHH: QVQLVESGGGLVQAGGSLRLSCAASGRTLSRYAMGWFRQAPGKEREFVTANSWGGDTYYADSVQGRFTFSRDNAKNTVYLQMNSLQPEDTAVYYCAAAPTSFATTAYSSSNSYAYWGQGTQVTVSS	0 (no)
FJ1427_P035MP07E03 (VHH, tested as periplasmic extract; also called Clone nr; 597) VHH: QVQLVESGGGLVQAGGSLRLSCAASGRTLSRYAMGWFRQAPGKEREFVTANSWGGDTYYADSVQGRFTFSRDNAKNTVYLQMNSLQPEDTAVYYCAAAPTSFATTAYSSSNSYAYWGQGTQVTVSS	0 (no)
FJ1427_P035MP07D09 (VHH, tested as periplasmic extract; also called Clone nr) VHH: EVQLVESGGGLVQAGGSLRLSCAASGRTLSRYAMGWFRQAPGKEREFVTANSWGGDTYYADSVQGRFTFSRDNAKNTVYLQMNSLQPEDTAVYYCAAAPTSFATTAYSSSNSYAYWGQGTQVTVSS	0 (no)
FJ1427_P035MP07C09 (VHH, tested as periplasmic extract; also called Clone nr; 643) VHH: QVQLVESGGGLVQAGGSLRLSCAASGRTLSRYAMGWFRQAPGKEREYVAIDSWGGDTFYADSVEGRFTFSRDNAKNEVYLQMNSLQPEDTAVYYCAGAPTSFATTAYSSSNSYRYWGQGTQVTVSS	1 (yes)
FJ1427_P035MP07G10 (VHH, tested as periplasmic extract; also called Clone nr; 655) VHH: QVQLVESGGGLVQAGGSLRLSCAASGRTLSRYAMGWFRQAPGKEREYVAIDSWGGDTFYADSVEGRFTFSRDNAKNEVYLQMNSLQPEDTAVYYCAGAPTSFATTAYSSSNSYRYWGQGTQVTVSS	1 (yes)
FJ1427_P035MP07C01 (VHH, tested as periplasmic extract; also called Clone nr) VHH: QVQLVESGGGLVQAGDSLRLSCVASGRTLSRCAMGWFRKAPGKEREYVAISSWGGDTFYEDSVEGRFTFSRDNAKNTVYLQMNSLRPEDTAVYYCAAAPTSFATTAYSSSNSYAYWGQGTQVTVSS	1 (yes)
FJ1427_P035MP07B08 (VHH, tested as periplasmic extract; also called Clone nr; 634) VHH: EVQLVESGGGSVQPGGSLRLSCAASGRTLSRYAMGWFRQAPGKEREFVTANSWGGDTYYADSVQGRFTFSRDNAKNTVYLQMNSLQPEDTAVYYCAAAPTSFATTAYSSSNSYAYWGQGTQVTVSS	0 (no)
FJ1427_P035MP07F05 (VHH, tested as periplasmic extract; also called Clone nr) VHH: EVQLVESGGGLVQAGGSLRLSCAASGRTLSRYAMGWFRQAPGREREFVTANSWGGDTYYADSVQGRFTFSRDNAKNTVYLQMNSLQPEDTAVYYCAAAPTSFATTAYSSSNSYAYWGQGTQVTVSS	0 (no)
